Attribution: PubChem BioAssay (NCI)

Overview of recorded TGI for various compounds
- Tested on: M14 melanoma
- ASSAY PROCEDURE: NCI tumour cell line growth inhibition, 48 h
TEST READOUT: TGI

[[record]]
compound = "N#CC1([N+](=O)[O-])C=C1c1ccccc1 (stereo not given)"
value = "> 100 µM"

[[record]]
compound = "COc1ccc(/C=C2\\CC3C4CC=C5C[C@@H](O)CC[C@]5(C)C4CC[C@]3(C)C2=O)cc1OC (stereo not given in full)"
value = "> 100 µM"

[[record]]
compound = "Nc1ccc2c(c1)S(=O)(=O)c1cc(N)ccc1-2"
value = "> 100 µM"

[[record]]
compound = "CCCC(=O)Oc1cc(OC(=O)CCC)c2c(C)cc(=O)oc2c1"
value = "> 100 µM"

[[record]]
compound = "COc1ccc(NC(C)=O)cc1N1C(=O)/C(=C\\c2cccc(Oc3ccccc3)c2)SC1c1ccccc1 (stereo not given)"
value = "> 100 µM"

[[record]]
compound = "COc1ccc2c(c1)O/C(=C\\c1ccc([N+](=O)[O-])s1)C2=O"
value = "> 100 µM"

[[record]]
compound = "C#Cc1ccccc1N1C(=O)C=CC1=O"
value = "> 100 µM"

[[record]]
compound = "C[C@H](c1ccc(Cl)cc1[N+](=O)[O-])N1C(=O)c2cc(I)ccc2NC(=O)[C@H]1c1ccc(Cl)cc1"
value = "> 100 µM"

[[record]]
compound = "NC(N)=NC(N)=NCc1ccco1"
value = "> 1250 µM"

[[record]]
compound = "Cc1ccc(NC(=O)CC2C(=O)Nc3ccccc3S2(=O)=O)cc1C (stereo not given)"
value = "> 100 µM"

[[record]]
compound = "COc1ccc(-c2c(C#N)cnc(N)c2-c2nc3cc(C)c(C)cc3[nH]2)cc1"
value = "> 100 µM"

[[record]]
compound = "CC(=O)Oc1cc2c(n(C)c1=O)CCC2"
value = "> 100 µM"

[[record]]
compound = "Cc1ccc(S(=O)(=O)N/N=C2\\CC3C4CCC3C2C4)cc1 (stereo not given)"
value = "> 100 µM"

[[record]]
compound = "CC(C)Cn1cnc2c(SCc3ccccn3)nc(N)nc21"
value = "> 100 µM"

[[record]]
compound = "Nc1nc(Cl)c2ncn(Cc3ccc(-c4ccc(CCl)cc4)cc3)c2n1"
value = "29.4 µM"

[[record]]
compound = "COc1cc[nH]c1/C=C1\\C(=O)Nc2ccc([N+](=O)[O-])c(N3CC[C@@H](O)C3)c21"
value = "1.13 µM"

[[record]]
compound = "O=c1ccc2nc3ccc(O)cc3oc-2c1"
value = "19.5 µM"

[[record]]
compound = "O=C(OCc1ccccc1)c1ccccc1-c1c2ccc(=O)cc-2oc2cc(OCc3ccccc3)ccc12"
value = "44.7 µM"

[[record]]
compound = "Cc1ccc2nnc(NS(=O)(=O)c3cc(C)c(Cl)cc3S)n2n1"
value = "> 100 µM"

[[record]]
compound = "CC(=O)Nc1ccc(OCC(O)CO)cc1 (stereo not given)"
value = "> 100 µM"

[[record]]
compound = "COc1ccccc1NC1=NCC(C)S1 (stereo not given)"
value = "> 100 µM"

[[record]]
compound = "CC1CC2(C)CC(=O)C1C1C(=O)N(CCN3CCOCC3)C(=O)C12 (stereo not given)"
value = "> 100 µM"

[[record]]
compound = "COc1ccc(-c2cc3c(N)ncnc3o2)cc1"
value = "> 25 µM"

[[record]]
compound = "CCN1CCC(O)(/C=C/c2ccc(Cl)cc2)C(C(=O)/C=C/c2ccc(Cl)cc2)C1 (stereo not given)"
value = "> 100 µM"

[[record]]
compound = "C=C(C)COC(=O)COCC(=O)OCC(=C)C"
value = "> 100 µM"


---

- Test system: SN12C renal
- ASSAY PROCEDURE: NCI tumour cell line growth inhibition, 48 h
# TGI per entry
TEST READOUT: TGI

[[record]]
compound = "N#CCCN(CCC#N)c1ccc(/C=C2\\N=C(c3ccccc3)N(c3ccccc3)C2=O)cc1"
value = "> 100 µM"

[[record]]
compound = "COc1ccc(-c2cc3c(N)ncnc3o2)cc1"
value = "> 25 µM"

[[record]]
compound = "CCOC(=O)C1C(=O)c2cccc(OC)c2C2COC(=O)N12 (configuration not stated)"
value = "> 100 µM"

[[record]]
compound = "O=Cc1ccc2[nH]c(=O)oc2c1"
value = "> 100 µM"

[[record]]
compound = "COn1cc(C(=O)N=C(SC)SC)c2ccccc21"
value = "74.3 µM"

[[record]]
compound = "O=c1c2cc([N+](=O)[O-])cnc2sn1-c1ccc(Br)cc1"
value = "> 100 µM"

[[record]]
compound = "CC(=O)OC1(C#N)CC2OC1C1NC21 (configuration not stated)"
value = "> 100 µM"

[[record]]
compound = "C/C(CC(O)(C(F)(F)F)C(F)(F)F)=N/Nc1ccc([N+](=O)[O-])cc1[N+](=O)[O-]"
value = "> 10 µM"

[[record]]
compound = "COc1cc[nH]c1/C=C1\\C(=O)Nc2ccc([N+](=O)[O-])c(N3CC[C@@H](O)C3)c21"
value = "4 µM"

[[record]]
compound = "COc1cc2c(cc1O)N=C[C@@H]1CCC(O)N1C2=O (mixture of isomers)"
value = "19.1 µM"

[[record]]
compound = "O=c1[nH]c(Br)nc2c(N3CCCCC3)c[nH]c12"
value = "> 100 µM"

[[record]]
compound = "COc1cc(N(CCC#N)CCC#N)ccc1/C(N=Nc1cccc(C)c1)=N\\NC(=O)c1ccc(C)cc1"
value = "> 100 µM"

[[record]]
compound = "COc1cc(OC)c2c(c1Cl)O[C@]1(C2=O)C(OCc2ccccc2)=CC(=O)C[C@H]1C"
value = "14 µM"

[[record]]
compound = "CC(=O)Nc1ccccc1S(=O)c1ccccc1 (configuration not stated)"
value = "> 100 µM"

[[record]]
compound = "CC(C)(C)OC(=O)CC(NC(=O)OC(C)(C)C)C(=O)Oc1ccc([N+](=O)[O-])cc1 (configuration not stated)"
value = "> 100 µM"

[[record]]
compound = "CCC(=O)Oc1ccc(/C=N/NC(N)=S)nc1"
value = "> 100 µM"

[[record]]
compound = "CC(=O)Nc1ccc(OCC(O)CO)cc1 (configuration not stated)"
value = "> 100 µM"

